Test system: Microbotryum violaceum
test details: Antifungal activity against Microbotryum violaceum at 50 ug/disk by agar diffusion assay
Format: functional, organism-based
Calls of active or inactive are those of the source. No cut-off for these calls is given here.
quantity kind: Activity

Worked examples, 4 compounds total:
> print(dat)
                                   compound  endpoint.result
1  C=C(C(=O)O)C(CCCCC(C)O)C(=O)OC (stereo not given)         inactive
2  C[C@@H]1C=C[C@@H]2C[C@H](CO)CC[C@H]2[C@@H]1C(=O)O         inactive
3  C=C(C(=O)O)C(CCCCCC)C(=O)O (stereo not given)         inactive
4        O=C1C(CO)=C[C@H](O)[C@H]2O[C@@H]12         inactive

Proceed to the following item.
Record C=C[C@@]1(C)C=C2C(=O)C(O)=C3[C@](C)(C(=O)O)CC[C@@H]4C[C@]34[C@]2(O)C(=O)C1 . Reported Activity: inactive
